- TARGET_UNDER_TEST: LRRK2 (Homo sapiens, UniProt Q5S007, G2019S)
- Construct: purchased Invitrogen PV4882
- Sequence (Q5S007 whole entry G2019S): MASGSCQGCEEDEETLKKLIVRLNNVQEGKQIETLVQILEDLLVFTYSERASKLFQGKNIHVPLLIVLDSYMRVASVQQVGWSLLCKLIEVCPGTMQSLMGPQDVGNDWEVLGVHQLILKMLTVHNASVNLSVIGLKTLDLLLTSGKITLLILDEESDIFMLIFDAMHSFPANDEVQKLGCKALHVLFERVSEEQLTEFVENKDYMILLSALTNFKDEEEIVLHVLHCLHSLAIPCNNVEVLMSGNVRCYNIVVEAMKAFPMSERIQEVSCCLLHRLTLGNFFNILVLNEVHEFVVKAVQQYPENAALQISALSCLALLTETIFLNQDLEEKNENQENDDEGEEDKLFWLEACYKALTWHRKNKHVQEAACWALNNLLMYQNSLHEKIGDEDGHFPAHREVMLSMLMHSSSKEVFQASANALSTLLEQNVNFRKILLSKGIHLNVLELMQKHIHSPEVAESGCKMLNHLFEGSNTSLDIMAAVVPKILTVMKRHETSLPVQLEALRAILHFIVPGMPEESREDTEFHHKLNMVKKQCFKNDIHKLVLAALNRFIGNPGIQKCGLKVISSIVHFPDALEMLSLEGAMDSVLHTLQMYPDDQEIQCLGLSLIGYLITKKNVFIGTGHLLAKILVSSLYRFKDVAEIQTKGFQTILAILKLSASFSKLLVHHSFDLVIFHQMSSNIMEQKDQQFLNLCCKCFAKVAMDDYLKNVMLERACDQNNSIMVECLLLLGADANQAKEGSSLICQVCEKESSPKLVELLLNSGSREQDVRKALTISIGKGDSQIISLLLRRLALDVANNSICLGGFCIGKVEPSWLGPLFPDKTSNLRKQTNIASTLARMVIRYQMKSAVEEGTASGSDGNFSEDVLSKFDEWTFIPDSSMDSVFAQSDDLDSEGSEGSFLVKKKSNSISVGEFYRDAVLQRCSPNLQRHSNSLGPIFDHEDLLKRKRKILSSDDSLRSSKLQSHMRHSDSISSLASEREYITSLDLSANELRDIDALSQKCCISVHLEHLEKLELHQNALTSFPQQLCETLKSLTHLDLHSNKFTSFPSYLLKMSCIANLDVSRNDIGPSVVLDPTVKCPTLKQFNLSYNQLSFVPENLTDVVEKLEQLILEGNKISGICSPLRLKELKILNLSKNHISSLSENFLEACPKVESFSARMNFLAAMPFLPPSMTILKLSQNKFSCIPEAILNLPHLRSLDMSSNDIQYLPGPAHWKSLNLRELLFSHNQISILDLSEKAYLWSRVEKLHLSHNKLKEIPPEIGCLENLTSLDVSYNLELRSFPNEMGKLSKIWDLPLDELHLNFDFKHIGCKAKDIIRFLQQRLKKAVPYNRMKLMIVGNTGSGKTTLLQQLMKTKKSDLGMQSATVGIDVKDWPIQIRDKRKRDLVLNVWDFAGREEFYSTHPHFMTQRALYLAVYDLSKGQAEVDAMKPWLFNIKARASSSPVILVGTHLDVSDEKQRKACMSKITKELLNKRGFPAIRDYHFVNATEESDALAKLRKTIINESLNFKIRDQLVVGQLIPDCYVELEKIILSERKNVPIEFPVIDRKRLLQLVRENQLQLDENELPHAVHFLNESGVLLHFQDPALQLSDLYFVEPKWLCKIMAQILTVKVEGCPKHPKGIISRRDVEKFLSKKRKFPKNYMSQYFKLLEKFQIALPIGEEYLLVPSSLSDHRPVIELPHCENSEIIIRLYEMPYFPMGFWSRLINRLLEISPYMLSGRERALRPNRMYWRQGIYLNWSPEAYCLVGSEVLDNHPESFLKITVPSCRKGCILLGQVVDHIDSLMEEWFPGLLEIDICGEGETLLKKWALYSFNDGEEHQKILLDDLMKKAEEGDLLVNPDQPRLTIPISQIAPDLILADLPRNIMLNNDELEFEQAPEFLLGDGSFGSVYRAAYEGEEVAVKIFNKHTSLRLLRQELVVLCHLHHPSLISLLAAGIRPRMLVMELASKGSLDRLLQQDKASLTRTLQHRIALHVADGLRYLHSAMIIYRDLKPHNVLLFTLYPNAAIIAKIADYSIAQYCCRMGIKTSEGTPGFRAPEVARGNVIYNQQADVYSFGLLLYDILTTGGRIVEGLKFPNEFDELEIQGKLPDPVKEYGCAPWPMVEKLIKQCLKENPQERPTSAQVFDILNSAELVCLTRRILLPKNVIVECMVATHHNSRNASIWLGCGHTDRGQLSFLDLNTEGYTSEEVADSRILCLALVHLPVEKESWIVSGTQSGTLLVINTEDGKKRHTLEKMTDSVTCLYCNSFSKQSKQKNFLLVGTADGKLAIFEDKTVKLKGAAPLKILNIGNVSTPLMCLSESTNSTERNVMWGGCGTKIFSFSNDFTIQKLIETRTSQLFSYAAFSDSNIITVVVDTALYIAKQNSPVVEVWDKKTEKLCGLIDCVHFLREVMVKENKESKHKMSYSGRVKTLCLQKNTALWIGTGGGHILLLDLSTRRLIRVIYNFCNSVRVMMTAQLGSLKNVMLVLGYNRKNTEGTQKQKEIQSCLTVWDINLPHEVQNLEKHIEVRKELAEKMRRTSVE
- MEASUREMENT_NOTES: In Vitro LRRK2 LabChip Assay (LRRK2 Ki)
- Assay type: biochemical
- TEST_SETTINGS: Table 5 compounds (formula I)

CHEMICAL_STRUCTURE: COc1nc(Nc2cc(C)c(C(=O)N3CCCC3)cc2OCF)ncc1Cl
Ki: 11.2 nM

CHEMICAL_STRUCTURE: COc1cc(C(=O)N2CCOCC2)c(F)cc1Nc1ncc(C(F)(F)F)c(N[C@@H]2C[C@@H]2F)n1
Ki: 2.19 nM

CHEMICAL_STRUCTURE: CNc1nc(Nc2ccc(C(=O)N3CCOCC3)cc2OC(F)F)ncc1C(F)(F)F
Ki: 5.98 nM

CHEMICAL_STRUCTURE: CNc1nc(Nc2cc(C)c(C(=O)N3CCOCC3)cc2F)ncc1C(F)(F)F
Ki: 4.97 nM

====

- TARGET_UNDER_TEST: LRRK2 (Homo sapiens, UniProt Q5S007, G2019S)
- Construct: purchased Invitrogen PV4882
- MEASUREMENT_NOTES: In Vitro LRRK2 LabChip Assay (LRRK2 Ki)
- Format: biochemical
- TEST_SETTINGS: Table 6 compounds (formula II/III, fused ring)
Ki values by entry
OBSERVABLE: Ki (pM)

CHEMICAL_STRUCTURE: CNc1nc(Nc2cc(C)c(C(=O)N3CCOCC3)cc2Cl)ncc1C(F)(F)F
ASSAY_VALUE: 310
//
CHEMICAL_STRUCTURE: CCNc1nc(Nc2ccc(C(=O)N3CCC(F)(F)C3)c3c2OCCO3)ncc1C(F)(F)F
ASSAY_VALUE: 636
//
CHEMICAL_STRUCTURE: CNc1nc(Nc2cc(C)c(C(=O)N3CCOCC3)cc2OC)ncc1C(F)(F)F
ASSAY_VALUE: 1080

====

Listed here are compounds together with their documented Ki.
- TARGET_UNDER_TEST: LRRK2 (Homo sapiens, UniProt Q5S007, G2019S)
- Construct: purchased Invitrogen PV4882
- MEASUREMENT_NOTES: In Vitro LRRK2 LabChip Assay (LRRK2 Ki)
- Assay type: biochemical
- TEST_SETTINGS: Table 5 compounds (formula I)

CHEMICAL_STRUCTURE: COc1cc(C(=O)N2CCOCC2)c(C)cc1Nc1ncc(C(F)(F)F)c(NC2CCC2)n1
UNIT_ABBREV: nM
Ki: 0.31

CHEMICAL_STRUCTURE: CNc1nc(Nc2cc(OC)c(C(=O)N3CCOCC3)cc2C)ncc1C(F)(F)F
UNIT_ABBREV: nM
Ki: 5.63

CHEMICAL_STRUCTURE: CCNc1nc(Nc2cc(OCF)c(C(=O)N3CCCC3)cc2Cl)ncc1C(F)(F)F
UNIT_ABBREV: nM
Ki: 1.68

CHEMICAL_STRUCTURE: CCNc1nc(Nc2cc(OC)c(C(=O)N3CC4(COC4)C3)cc2Cl)ncc1C(F)(F)F
UNIT_ABBREV: nM
Ki: 0.832

CHEMICAL_STRUCTURE: CNc1nc(Nc2cc(Cl)c(C(=O)N3CCOCC3)cc2C)ncc1C(F)(F)F
UNIT_ABBREV: nM
Ki: 6.79

CHEMICAL_STRUCTURE: CCOc1nc(Nc2cc(F)c(C(=O)N3CCOCC3)cc2OC)ncc1C(F)(F)F
UNIT_ABBREV: nM
Ki: 16.9

CHEMICAL_STRUCTURE: CCNc1nc(Nc2cc(OCF)c(C(=O)N3CCOCC3)cc2Cl)ncc1C(F)(F)F
UNIT_ABBREV: nM
Ki: 1.46

CHEMICAL_STRUCTURE: CNc1nc(Nc2cc(OC)c(C(=O)N3CC(N4CCOCC4)C3)cc2Cl)ncc1C(F)(F)F
UNIT_ABBREV: nM
Ki: 3.12

CHEMICAL_STRUCTURE: CCNc1nc(Nc2cc(Cl)c(C(=O)N3CCOCC3)cc2F)ncc1C(F)(F)F
UNIT_ABBREV: nM
Ki: 4.31

CHEMICAL_STRUCTURE: CNc1nc(Nc2cc(F)c(C(=O)N3C[C@H](F)[C@@H](F)C3)cc2OC)ncc1C(F)(F)F
UNIT_ABBREV: nM
Ki: 4.42

CHEMICAL_STRUCTURE: O=C(c1ccc(Nc2ncc(C(F)(F)F)c(NC3CC3)n2)c(F)c1F)N1CCOCC1
UNIT_ABBREV: nM
Ki: 2.28

CHEMICAL_STRUCTURE: CCNc1nc(Nc2cc(OC)c(C(=O)N3CC[C@H](F)C3)cc2Cl)ncc1C#N
UNIT_ABBREV: nM
Ki: 12.7

CHEMICAL_STRUCTURE: CCNc1nc(Nc2cc(F)c(C(=O)N3CCOCC3)cc2Cl)ncc1C(F)(F)F
UNIT_ABBREV: nM
Ki: 4.65

CHEMICAL_STRUCTURE: CNc1nc(Nc2cc(OC)c(C(=O)N3CCN(CCOC)CC3)cc2Cl)ncc1C(F)(F)F
UNIT_ABBREV: nM
Ki: 4

CHEMICAL_STRUCTURE: CNc1nc(Nc2cc(F)c(C(=O)N3CCOC(C)(C)C3)cc2OC)ncc1C(F)(F)F
UNIT_ABBREV: nM
Ki: 6.86

CHEMICAL_STRUCTURE: CCNc1nc(Nc2cc(F)c(C(=O)N3CCOCC3)cc2OCCF)ncc1C(F)(F)F
UNIT_ABBREV: nM
Ki: 2.02

CHEMICAL_STRUCTURE: CCNc1nc(Nc2cc(C)c(C(=O)N3CCOCC3)cc2F)ncc1C(F)(F)F
UNIT_ABBREV: nM
Ki: 1.23

CHEMICAL_STRUCTURE: [2H]C1([2H])C(Nc2nc(Nc3cc(F)c(C(=O)N4CCOCC4)cc3OC)ncc2C(F)(F)F)C1([2H])[2H]
UNIT_ABBREV: nM
Ki: 0.31

CHEMICAL_STRUCTURE: COc1cc(C(=O)NCC(C)(C)O)c(F)cc1Nc1ncc(C(F)(F)F)c(NC2CC2)n1
UNIT_ABBREV: nM
Ki: 0.31

CHEMICAL_STRUCTURE: CNc1nc(Nc2cc(F)c(C(=O)N3CCC(N4CCOCC4)CC3)cc2OC)ncc1C(F)(F)F
UNIT_ABBREV: nM
Ki: 0.7

CHEMICAL_STRUCTURE: COc1nc(Nc2ccc(C(=O)N3CCOCC3)cc2OCCF)ncc1Cl
UNIT_ABBREV: nM
Ki: 14.5

CHEMICAL_STRUCTURE: CNc1nc(Nc2ccc(C(=O)N3CCOC(C)(C)C3)cc2OC)ncc1C(F)(F)F
UNIT_ABBREV: nM
Ki: 1.74

CHEMICAL_STRUCTURE: CNc1nc(Nc2ccc(C(=O)N3CCOCC3)c(F)c2Cl)ncc1C(F)(F)F
UNIT_ABBREV: nM
Ki: 14.2

CHEMICAL_STRUCTURE: CCNc1nc(Nc2cc(F)c(C(=O)NC(C)(C)CO)cc2OC)ncc1C(F)(F)F
UNIT_ABBREV: nM
Ki: 0.406

CHEMICAL_STRUCTURE: CNc1nc(Nc2cc(F)c(C(=O)N3CCCC3)cc2OCF)ncc1C(F)(F)F
UNIT_ABBREV: nM
Ki: 6.93

CHEMICAL_STRUCTURE: CCOc1cc(C(=O)N2CCOCC2)c(C)cc1Nc1ncc(C(F)(F)F)c(NC)n1
UNIT_ABBREV: nM
Ki: 1.05

CHEMICAL_STRUCTURE: CNc1nc(Nc2cc(F)c(C(=O)N3CCOCC3)cc2C)ncc1C(F)(F)F
UNIT_ABBREV: nM
Ki: 3.64

CHEMICAL_STRUCTURE: COc1cc(C(=O)N2CCOCC2)c(F)cc1Nc1ncc(C(F)(F)F)c(NC2CCC2)n1
UNIT_ABBREV: nM
Ki: 0.31

CHEMICAL_STRUCTURE: CCNc1nc(Nc2ccc(C(=O)NC(C)(C)C)cc2OC)ncc1C(F)(F)F
UNIT_ABBREV: nM
Ki: 0.371

CHEMICAL_STRUCTURE: CNc1nc(Nc2cc(F)c(C(=O)N3CCOCC3)cc2F)ncc1C(F)(F)F
UNIT_ABBREV: nM
Ki: 24.2

CHEMICAL_STRUCTURE: CCNc1nc(Nc2cc(C)c(C(=O)NCC(C)(C)O)cc2OC)ncc1C(F)(F)F
UNIT_ABBREV: nM
Ki: 0.31

CHEMICAL_STRUCTURE: CCNc1nc(Nc2ccc(C(=O)N3CC[C@H](F)C3)cc2Cl)ncc1C#N
UNIT_ABBREV: nM
Ki: 28.9

CHEMICAL_STRUCTURE: CNc1nc(Nc2cc(OC)c(C(=O)N3CCCC3)cc2OCF)ncc1C(F)(F)F
UNIT_ABBREV: nM
Ki: 3.2
